ASSAY_PROCEDURE: Noncompartmental pharmacokinetic parameters (Cmax, Tmax, AUC, Racc) in QD and BID cohorts of Form B
Format: in vivo, human
STUDY_CONDITIONS: human, plasma, oral, 650 mg, Compound III; 650 mg QD of Form B; Cohort 5; Day 29; read-out: Tmax (Median)
PROPERTY: Tmax
Write your answer as a measured quantity: the number, then the unit.

In plain terms, `O=C1NCC2(CCCCC2)n2c1cc1cnc(Nc3ccc(N4CCNCC4)cn3)nc12` has a documented Tmax of 7 h

====

ASSAY_PROCEDURE: Plasma concentration versus time of Compound I and metabolite Compound III in patients dosed QD or BID with Form B of Compound II plus fulvestrant
Format: in vivo, human
STUDY_CONDITIONS: human, plasma, oral, 200 mg, 200 mg QD of Form B, Day 1, […], Median; read-out: Compound I Concentration
PROPERTY: concentration at 24 h (ng/mL)
Give just the numeric value; ng/mL need not be written.

In plain terms, `CC(C)N1CCN(c2ccc(Nc3ncc4cc5n(c4n3)C3(CCCCC3)CNC5=O)nc2)CC1` has a documented concentration at 24 h of 3.24
